method summary: chemical genetic growth profiling, strain panel (AID 1159580);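 note: tested at 20 µM; growth read once vehicle control cultures reached saturation at 30 °C; 1 = growth at the plate median or of vehicle wells; lower values mean less growth of the strain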
condition label: S. cerevisiae deletion strains, growth OD, locus YKL190W, strain CNB1
Among all 5,500 compounds or so, about 2,000 (36%) were called active. About 18% were inconclusive and are not listed. Cut-off read from the data, not from the text of the source: active = normalized growth mostly below about 0.91 (no sharp cut-off); inconclusive = no clear call, values can overlap the other calls; inactive = mostly above about 0.92. The list shows a part of the results.
Pick from true (1) (active), false (0) (inactive) when you respond.

Some solved cases for reference:
compound	class assignment
C[C@@H]1CC(Cl)CC[C@H]1C(=O)OC(C)(C)C (stereo not given in full)	false (0)
CN(C)CCOC(c1ccc(Cl)cc1)c1ccccn1 (stereo not given)	false (0)
O=C(Oc1cc(OC(=O)c2ccccc2)c2c(c1)O[C@H](c1ccc(OC(=O)c3ccccc3)c(OC(=O)c3ccccc3)c1)[C@@H](OC(=O)c1ccccc1)C2)c1ccccc1	false (0)
O=[N+]([O-])c1ccc(OCCO)c([N+](=O)[O-])c1	false (0)
COc1ccc2c(c1)OC/C(=C/c1ccc(OC)c(OC)c1)C2=O	false (0)

# lookup: test call for COc1ccc2c(c1)OC/C(=C\c1ccc(OC)c(O)c1)C2=O
true (1)

Look up the recorded call for CNC(=O)O/N=C(\C)SC in this test.
false (0)

Write down the call the test reported for this compound. Item: O=[N+]([O-])c1ccc(S(=O)(=O)N2CCCCC2)cc1
false (0)

Please let me know the test result on file for C=C[C@@](C)(O)CCC1C(=C)C[C@H](O)C2C(C)(C)CCCC12C (stereo not given in full) .
false (0)

Could you please tell me the result logged for CC1(C)CCC[C@@]2(C)C1[C@@H](O)C[C@]1(C)C2CC[C@@H]2[C@@]3(C)CC[C@H](C(C)(C)O)[C@@H]3CC[C@@]21C (stereo not given in full) in this assay?
false (0)

====

method summary: chemical genetic growth profiling, strain panel (AID 1159580)
condition label: S. cerevisiae deletion strains, growth OD, locus YLR268W, strain sec22, stronger effect = lower value
About 2,000 (36%) of roughly 5,500 compounds were called active. Another 18% or so got no clear call; they are omitted. The list shows a part of the results.
Listed here are compounds together with their documented normalized growth.
Enter a number only.

compound	attribute measured	reported measurement
C=C[C@@](C)(O)CCC1C(=C)C[C@H](OC(C)=O)C2C(C)(C)CCCC12C (stereo partly specified)	normalized growth	0.975

Quick note, normalized growth for C=C1CCC2[C@](C)(CO)[C@H](O)CC[C@@]2(C)[C@@H]1C/C=C1/C(=O)OC[C@H]1O (stereo partly specified) landed at 1.04

Per the records, this compound ( CC1(C)CCC[C@@]2(C)C1[C@@H](O)C[C@]1(C)C2CC[C@@H]2[C@@]3(C)CC[C@H](C(C)(C)O)[C@@H]3CC[C@@]21C (stereo partly specified) ) has normalized growth equal to 0.986

The value of normalized growth measured for the compound CCN(CC)C(=O)N1CCN(C)CC1 turned out to be 1.01

The reported normalized growth of the compound CCCCCCCCC(=O)NCc1ccc(O)c(OC)c1 was 0.97

Noted for CCCCCCCCCCC[C@@H](C[C@H]1OC(=O)[C@H]1CCCCCC)OC(=O)[C@@H](CC(C)C)NC=O : its normalized growth reads 1.02

normalized growth reading for Cc1ccc(S(=O)(=O)NC(=O)NN2CCCCCC2)cc1 : 0.983

Lookup result for CN1CC(=O)N=C1N ; measured normalized growth: 0.977

Please fill in: normalized growth reported for CCN1CCCC(OC(=O)C(c2ccccc2)c2ccccc2)C1 (stereo unspecified) = 1.01

normalized growth reading for COc1cc(CNC(=O)CCCC/C=C/C(C)C)ccc1O : 0.967

Sure, the documented normalized growth for CCCCNC(=O)NS(=O)(=O)c1ccc(C)cc1 is 0.951

====

method summary: chemical genetic growth profiling, strain panel (AID 1159580);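 note: tested at 20 µM; growth read once vehicle control cultures reached saturation at 30 °C; 1 = growth at the plate median or of vehicle wells; lower values mean less growth of the strain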
condition label: S. cerevisiae deletion strains, growth OD, locus YNL250W, strain rad50, stronger effect = lower value
The campaign covered roughly 5,500 compounds. About 2,000 (36%) were called active. Roughly 18% stayed inconclusive and do not appear here. Some of the results follow.
attribute measured: normalized growth
Give the value as a plain number.

The cases that follow already have their normalized growth on record.
molecule	normalized growth
NC(=O)c1ccc[n+]([C@@H]2O[C@H](COP(=O)([O-])OP(=O)(O)OC[C@H]3O[C@@H](n4cnc5c(N)ncnc54)[C@H](OP(=O)(O)O)[C@@H]3O)[C@@H](O)[C@H]2O)c1	0.995
COC(=O)/C=C/C(C)=C/C=C/C(C)=C/C=C/C=C(C)/C=C/C=C(C)/C=C/C(=O)O	0.986
O=C(Oc1cc(OC(=O)c2ccccc2)c2c(c1)O[C@H](c1ccc(OC(=O)c3ccccc3)c(OC(=O)c3ccccc3)c1)[C@@H](OC(=O)c1ccccc1)C2)c1ccccc1	1.05
COc1cc2c(cc1OC)C(=O)c1ccc(OC)c(OC)c1OCC(=O)C2	0.936
Clc1ccc(C(c2ccc(Cl)cc2)C(Cl)(Cl)Cl)cc1	1
O=C(O[C@@H]1Cc2c(O)cc(O)cc2O[C@@H]1c1cc(O)c(O)c(O)c1)c1cc(O)c(O)c(O)c1	1.02
C=C1C2CC[C@@]3(C)[C@H](c4ccoc4)OC(=O)C[C@]13O[C@H]1CC(=O)C(C)(C)[C@H](C(OC(C)=O)C(=O)OC)[C@@]21C (some centres undefined)	1.03
COc1ccc(C(c2ccc(OC)cc2)C(Cl)(Cl)Cl)cc1	0.992
COc1ccc(C(=O)CC(=O)O)c2c1C=CC(C)(C)O2	0.981
C[C@H]1COc2c(N3CCN(C)CC3)c(F)cc3c(=O)c(C(=O)O)cn1c23	1.01

normalized growth measured on Oc1cc(O)c2c(c1)O[C@H](c1cc(O)c(O)c(O)c1)[C@H](O)C2 = 0.986

normalized growth recorded for this molecule, CN1C2CCC1CC(OC(c1ccccc1)c1ccccc1)C2 (centres undefined) , is 0.971

response.value for COc1ccc2c(c1)OC/C(=C/c1ccc(OC)c(OC)c1)C2=O (field: normalized growth) = 0.98

Looking up COc1ccc([C@H]2Oc3c(I)c(OC)cc(OC)c3C[C@@H]2O)cc1OC , I found its normalized growth recorded as 0.961

Form: molecule = COc1c(N2CCNC(C)C2)c(F)cc2c(=O)c(C(=O)O)cn(C3CC3)c12 (centres undefined) ; normalized growth = 0.868

Memo: CCCCCCC(C)OC(=O)COc1cc(Cl)c(Cl)cc1Cl (centres undefined) , reported normalized growth: 0.982

Entry OCC(O)CN1CCN(c2ccccc2)CC1 (centres undefined) — recorded normalized growth = 0.988

The recorded normalized growth for entry CN1CC(CO)=C[C@@H]2c3cccc4[nH]cc(c34)C[C@H]21 equals 0.988

====

method summary: chemical genetic growth profiling, strain panel (AID 1159580);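 note: tested at 20 µM; growth read once vehicle control cultures reached saturation at 30 °C; 1 = growth at the plate median or of vehicle wells; lower values mean less growth of the strain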
condition label: S. cerevisiae deletion strains, growth OD, locus YLR058C, strain SHM2
The campaign covered roughly 5,500 compounds. About 2,000 (36%) were called active. Another 18% or so got no clear call; they are omitted. Cut-off read from the data, not from the text of the source: active = normalized growth mostly below about 0.91 (no sharp cut-off); inconclusive = no clear call, values can overlap the other calls; inactive = mostly above about 0.92. This is one part of the list.
Select the matching outcome among active, inactive

Answered cases to consult:
compound	class assignment
CN1CCC(OC(c2ccccc2)c2ccccc2)CC1	inactive
COc1cc([C@@H]2c3cc4c(cc3C(OC3O[C@@H]5COC(C)O[C@H]5[C@H](O)[C@H]3O)C3COC(=O)[C@@H]32)OCO4)cc(OC)c1O (stereo partly specified)	inactive

Field: outcome | Entry: O=C(O)CCCc1ccccc1
inactive

Hi team, can someone confirm the assay call for COc1ccc2c(c1)OC/C(=C\c1ccc(OC)c(O)c1)C2=O ?
active

Query: recorded result category for N[C@@H](Cc1ccc(N(CCCl)CCCl)cc1)C(=O)O in this test
inactive

Assay outcome for CC(=O)O[C@H]1C[C@@H](OC(C)=O)C(C)(C)C2CC(=O)[C@]3(C)C(CC[C@@]4(C)[C@H](C(=O)O)OC(=O)C5OC543)[C@]21C (stereo partly specified) : what was it?
inactive

For Clc1ccc(C(OCCN2CCCCC2)c2ccccc2)cc1 (stereo unspecified) , which call appears in the assay record?
inactive

Recorded call for COc1cc2c(cc1OC)C(=O)c1ccc(OC)c(OC)c1OCC(=O)C2 ?
inactive

Assay outcome for Cc1ccccc1C(OCCN(C)C)c1ccccc1 (stereo unspecified) : what was it?
inactive

Returns: the outcome recorded for O=C1NCC2(CCN(CCc3ccccc3)CC2)O1 in this assay.
inactive

Tell me the assay call for O=C(O)CCCc1ccc(N(CCCl)CCCl)cc1 please.
inactive

====

method summary: chemical genetic growth profiling, strain panel (AID 1159580);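 note: tested at 20 µM; growth read once vehicle control cultures reached saturation at 30 °C; 1 = growth at the plate median or of vehicle wells; lower values mean less growth of the strain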
condition label: S. cerevisiae deletion strains, growth OD, locus YJL164C, strain tpk1, stronger effect = lower value
Among all 5,500 compounds or so, about 2,000 (36%) were called active. Another 18% or so got no clear call; they are omitted. This is one part of the list.
attribute measured: normalized growth
Lab note: jot the number down without any unit.

Would you please look over these solved cases?
compound	reported measurement
COC(=O)C[C@H]1C2(C)CC34OC5(C)O[C@@]6([C@H](OC(C)=O)C(OC(C)=O)[C@]7(C)C(/C(=C(/O)C(C)C)C(=O)O[C@H]7c7ccoc7)[C@@]6(O5)[C@H](OC(C)=O)[C@@]3(O)C2OC(=O)C(C)C)[C@]14C (some centres not stated)	1.01
COc1cc([C@@H]2c3cc4c(cc3[C@@H](O)C3COC(=O)C32)OCO4)cc(OC)c1O (some centres not stated)	0.967
N[C@@H](Cc1ccc(N(CCCl)CCCl)cc1)C(=O)O	0.949
COc1ccc(-c2coc3cc(O)ccc3c2=O)cc1	0.943
C[n+]1c2cc(N)ccc2cc2ccc(N)cc21	0.417

The recorded normalized growth for entry C=CCc1ccc(O)c(OC)c1 equals 1.02
